# subject.of.test: T1, human Sortilin Fc fusion protein (human, UniProt Q99523 78-755)
# T1 construct: whole entry named; also called hSort-Fc
# experiment: ForteBio, avid;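 further: whole IgG captured on AHQ sensors, then contacted with Sortilin Fc fusion antigen at 100 nM, followed by an off-rate phase in buffer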
So I've got a bunch of binders here, and I need their pKd values.
In simple prose, pKd is minus the logarithm base ten of a concentration in moles per litre.

Exercise: Look up and report measured pKd for this entry: S-26 (antibody, V domains shown, IgG) VH: EVQLVESGGGLVKPGGSLRLSCAASGFTFSSYSMNWVRQAPGKGLEWVSSISSSSSYIYYADSVKGRFTISRDNAKNSLYLQMNSLRAEDTAVYYCARDRLGRGYKWNWFDPWGQGTLVTVSS VL: DIQMTQSPSSVSASVGDRVTITCRASQGIDSWLAWYQQKPGKAPKLLIYAASSLQSGVPSRFSGSGSGTDFTLTISSLQPEDFATYYCQQGNSLPPITFGGGTKVEIK
Solution: 8.54

Exercise: Return pKd for the following binder: S-69 (antibody, V domains shown, IgG) VH: QVQLQESGPGLVKPSQTLSLTCTVSGGSISSGGYYWSWIRQHPGKGLEWIGYIYYSGSTYYNPSLKSRVTISVDTSKNQFSLKLSSVTAADTAVYYCARDRGGTHFGADHYYYGMDVWGQGTMVTVSS VL: EIVMTQSPATLSVSPGERATLSCRASQSVSSSLAWYQQKPGQAPRLLIYGASTRATGIPARFSGSGSGTEFTLTISSLQSEDFAVYYCQQAADWPITFGGGTKVEIK
Solution: 8.37

Exercise: Consider the binder S-15 (antibody, V domains shown, IgG) VH: QVQLVQSGAEVKKPGASVKVSCKASGYTFTSYYMSWVRQAPGQGLEWMGIINPSGGSTSYAQKFQGRVTMTRDTSTSTVYMELSSLRSEDTAVYYCARDPSGIAAAGPASRYYYGMDVWGQGTTVTVSS VL: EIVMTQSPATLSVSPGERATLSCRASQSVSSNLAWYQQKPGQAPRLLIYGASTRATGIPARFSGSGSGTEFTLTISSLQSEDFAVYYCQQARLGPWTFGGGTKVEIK . State its measured pKd.
Solution: 8.64

Exercise: Report pKd, nothing else, for this binder: S-9 (antibody, V domains shown, IgG) VH: QVQLVQSGAEVKKPGASVKVSCKASGYTFTSYGISWVRQAPGQGLEWMGWISAYNGNTNYAQKLQGRVTMTTDTSTSTAYMELRSLRSDDTAVYYCARDPGGYGPTLYYYYGMDVWGQGTTVTVSS VL: EIVMTQSPATLSVSPGERATLSCRASQSVSSNLAWYQQKPGQAPRLLIYGASTRATGIPARFSGSGSGTEFTLTISSLQSEDFAVYYCQQYNIYPLTFGGGTKVEIK
Solution: 8.16

Exercise: Identify pKd associated with the binder S-10 (antibody, V domains shown, IgG) VH: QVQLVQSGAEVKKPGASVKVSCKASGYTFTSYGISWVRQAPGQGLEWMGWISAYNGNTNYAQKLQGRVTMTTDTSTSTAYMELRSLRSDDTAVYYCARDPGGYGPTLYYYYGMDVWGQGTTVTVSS VL: EIVMTQSPATLSVSPGERATLSCRASQSVSSNLAWYQQKPGQAPRLLIYGASTRATGIPARFSGSGSGTEFTLTISSLQSEDFAVYYCQQYADWPPITFGGGTKVEIK
Solution: 7.96

Exercise: Name the recorded pKd of the binder listed here: S-73 (antibody, V domains shown, IgG) VH: QVQLQESGPGLVKPSQTLSLTCTVSGGSISSGTYYWSWIRQHPGKGLEWIGYIYYSGSTYYNPSLKSRVTISVDTSKNQFSLKLSSVTAADTAVYYCARGVGRYRVADYWGQGTLVTVSS VL: EIVLTQSPATLSLSPGERATLSCRASQSVSSYLAWYQQKPGQAPRLLIYDASNRATGIPARFSGSGSGTDFTLTISSLEPEDFAVYYCQQASVYPPITFGGGTKVEIK
Solution: 8.48

Exercise: Note pKd for the binder shown: S-18 (antibody, V domains shown, IgG) VH: QVQLVQSGAEVKKPGSSVKVSCKASGGTFSSYAISWVRQAPGQGLEWMGSIIPIFGTANYAQKFQGRVTITADESTSTAYMELSSLRSEDTAVYYCARDKHGRRGYYYYMDVWGKGTTVTVSS VL: EIVLTQSPATLSLSPGERATLSCRASQSVSSYLAWYQQKPGQAPRLLIYDASNRATGIPARFSGSGSGTDFTLTISSLEPEDFAVYYCQQGANAPPRTFGGGTKVEIK
Solution: 9.32

Exercise: Read off the recorded pKd for S-14 (antibody, V domains shown, IgG) VH: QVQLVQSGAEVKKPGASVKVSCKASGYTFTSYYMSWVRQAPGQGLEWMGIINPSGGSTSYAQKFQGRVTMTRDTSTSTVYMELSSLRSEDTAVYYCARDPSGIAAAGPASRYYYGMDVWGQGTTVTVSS VL: DIQMTQSPSSLSASVGDRVTITCRASQSISSYLNWYQQKPGKAPKLLIYGASSLQSGVPSRFSGSGSGTDFTLTISSLQPEDFATYYCQQHYVGPFTFGGGTKVEIK
Solution: 8.24

Exercise: Identify the reported pKd for the following entry. S-48 (antibody, V domains shown, IgG) VH: QVQLVESGGGVVQPGRSLRLSCAASGFTFSSYGMHWVRQAPGKGLEWVAVISYDGSNKYYADSVKGRFTISRDNSKNTLYLQMNSLRAEDTAVYYCARESGDRATLVYYYYYGMDVWGQGTTVTVSS VL: EIVMTQSPATLSVSPGERATLSCRASQSVSSNLAWYQQKPGQAPRLLIYSASTRATGIPARFSGSGSGTEFTLTISSLQSEDFAVYYCQQYNSWPITFGGGTKVEIK
Solution: 8.30

Exercise: Specify measured pKd for S-58 (antibody, V domains shown, IgG) VH: QVQLQESGPGLVKPSETLSLTCAVSGYSISSGYYWGWIRQPPGKGLEWIGSIYHSGNTYYNPSLKSRVTISVDTSKNQFSLKLSSVTAADTAVYYCARGPPELGKMYFQHWGQGTLVTVSS VL: EIVLTQSPATLSVSPGERATLSCRASQSVSSNLAWYQQKPGQAPRLLIYGASTRATGIPARFSGSGSGTEFTLTISSLQSEDFAVYYCQQDRKGPLTFGGGTKVEIK .
Solution: 8.59
